target: DNA dC->dU-editing enzyme APOBEC-3G (Homo sapiens); assay type: functional;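 note: Dose-response counterscreen measuring inhibition of APOBEC3G DNA deaminase activity, run while confirming APOBEC3A inhibitors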
Sequence (Q9HC16 whole entry): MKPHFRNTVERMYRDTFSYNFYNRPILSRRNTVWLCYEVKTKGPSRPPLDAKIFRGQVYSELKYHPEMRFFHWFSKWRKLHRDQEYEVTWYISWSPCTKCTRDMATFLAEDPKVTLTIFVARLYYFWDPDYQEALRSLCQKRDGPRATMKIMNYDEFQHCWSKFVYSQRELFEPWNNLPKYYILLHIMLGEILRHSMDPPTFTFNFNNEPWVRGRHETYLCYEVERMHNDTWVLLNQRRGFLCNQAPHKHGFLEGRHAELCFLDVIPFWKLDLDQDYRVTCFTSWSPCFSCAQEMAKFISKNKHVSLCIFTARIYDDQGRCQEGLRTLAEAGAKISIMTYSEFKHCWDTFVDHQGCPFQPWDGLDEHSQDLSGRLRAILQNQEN
Calls of active or inactive are those of the source.

>  <CPD_SMILES>
Cn1c(SCC(=O)Nc2ccc3c(c2)oc2ccccc23)nnc1-c1ccccc1

>  <IC50>
6.7 µM (active)

$$$$
>  <CPD_SMILES>
C[N+]1(CCCCCCC(=O)C=NO)CCCCCC1

>  <IC50>
3.9 µM (active)

$$$$
>  <CPD_SMILES>
CC1(C)Oc2ccc3ccc(=O)oc3c2C(/C=N/CCO)=C1O

>  <IC50>
6.83 µM (active)

$$$$
>  <CPD_SMILES>
CC(=O)Nc1nnc(SCc2ccc(C(=O)Nc3ccccc3F)cc2)s1

>  <IC50>
6.06 µM (active)

$$$$

* * *

target: UniProt:P61088; format: functional
Sequence (P61088 whole entry): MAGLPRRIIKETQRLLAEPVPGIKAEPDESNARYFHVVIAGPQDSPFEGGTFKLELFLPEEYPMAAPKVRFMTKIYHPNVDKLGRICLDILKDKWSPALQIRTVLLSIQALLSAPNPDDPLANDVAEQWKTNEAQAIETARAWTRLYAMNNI
Calls of active or inactive are those of the source.
Reported IC50 is given for each of the following compounds.
OBSERVABLE: IC50

>  <COMPOUND>
CNC[C@H](Cc1ccccc1)NC[C@@H](Cc1cccc2ccccc12)NCCc1ccc(C)cc1

>  <OBSERVED_RESULT>
11.5 µM (active)

$$$$
>  <COMPOUND>
CC(C)c1ccc(NC(=O)C[n+]2ccn(C3=C([O-])c4ccccc4C3=O)c2)cc1

>  <OBSERVED_RESULT>
17.8 µM (active)

$$$$
>  <COMPOUND>
Cc1c(NC(=O)CCCCCN2C(=O)c3ccccc3C2=O)c(=O)n(-c2ccccc2)n1C

>  <OBSERVED_RESULT>
0.709 µM (active)

$$$$
>  <COMPOUND>
C#CCOCCOCCOCCNc1nc(N2CCN(C(=O)[C@H](CCCCN)n3cc(CN)nn3)CC2)nc(N2CCN(C(=O)[C@H](CCCN=C(N)N)n3cc(C(N)[C@H](C)CC)nn3)CC2)n1 (stereo not given in full)

>  <OBSERVED_RESULT>
7.94 µM (active)

$$$$
>  <COMPOUND>
COc1ccccc1NC(=O)c1c(/N=C/c2ccccc2O)cnn1C

>  <OBSERVED_RESULT>
10.4 µM (active)

$$$$

* * *

molecular target: Metabotropic glutamate receptor 3 (Rattus norvegicus); assay: inhibitors of rat mGlu3 Galpha15 signaling – TREx293 cells, calcium flux, mGlu3 NAM project, dose response (AID 651840)
Sequence (P31422 whole entry): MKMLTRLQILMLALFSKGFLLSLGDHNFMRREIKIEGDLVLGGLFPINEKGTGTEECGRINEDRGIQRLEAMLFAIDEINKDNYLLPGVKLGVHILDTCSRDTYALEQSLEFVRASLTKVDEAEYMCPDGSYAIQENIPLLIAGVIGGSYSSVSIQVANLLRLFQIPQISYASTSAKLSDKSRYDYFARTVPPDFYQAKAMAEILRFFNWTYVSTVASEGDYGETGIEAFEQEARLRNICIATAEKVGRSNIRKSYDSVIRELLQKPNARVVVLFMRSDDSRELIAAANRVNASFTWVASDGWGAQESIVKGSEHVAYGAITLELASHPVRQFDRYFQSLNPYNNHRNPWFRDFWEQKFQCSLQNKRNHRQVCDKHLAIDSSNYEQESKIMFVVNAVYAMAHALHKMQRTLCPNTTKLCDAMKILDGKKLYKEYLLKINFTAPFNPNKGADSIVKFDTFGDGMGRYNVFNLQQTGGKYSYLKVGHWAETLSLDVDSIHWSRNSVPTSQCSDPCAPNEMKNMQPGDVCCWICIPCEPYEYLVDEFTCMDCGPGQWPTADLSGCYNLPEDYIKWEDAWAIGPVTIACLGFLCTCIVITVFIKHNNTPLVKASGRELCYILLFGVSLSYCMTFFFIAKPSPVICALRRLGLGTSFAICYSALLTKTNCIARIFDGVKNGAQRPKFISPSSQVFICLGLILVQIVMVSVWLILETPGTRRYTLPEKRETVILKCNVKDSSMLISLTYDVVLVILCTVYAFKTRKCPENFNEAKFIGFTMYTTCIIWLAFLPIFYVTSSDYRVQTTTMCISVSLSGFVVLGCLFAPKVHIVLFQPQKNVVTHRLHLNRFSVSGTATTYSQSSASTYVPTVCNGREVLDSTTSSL
pIC50: −log10 of the molar value.
OBSERVABLE: pIC50

>  <COMPOUND>
CCC1(O)CCCN(C(=O)c2ccc(C#Cc3ccc(OC)cc3)cc2)C1 (stereo unspecified)

>  <OBSERVABLE>
pIC50

>  <OBSERVED_RESULT>
5.74

$$$$

* * *

Measured AC50 of individual entries
Biological target: Cytochrome P450 1A2 (Homo sapiens, UniProt P05177);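 note: PubChem cytochrome P450 panel assay, CYP1A2 panel member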
Sequence (P05177 whole entry): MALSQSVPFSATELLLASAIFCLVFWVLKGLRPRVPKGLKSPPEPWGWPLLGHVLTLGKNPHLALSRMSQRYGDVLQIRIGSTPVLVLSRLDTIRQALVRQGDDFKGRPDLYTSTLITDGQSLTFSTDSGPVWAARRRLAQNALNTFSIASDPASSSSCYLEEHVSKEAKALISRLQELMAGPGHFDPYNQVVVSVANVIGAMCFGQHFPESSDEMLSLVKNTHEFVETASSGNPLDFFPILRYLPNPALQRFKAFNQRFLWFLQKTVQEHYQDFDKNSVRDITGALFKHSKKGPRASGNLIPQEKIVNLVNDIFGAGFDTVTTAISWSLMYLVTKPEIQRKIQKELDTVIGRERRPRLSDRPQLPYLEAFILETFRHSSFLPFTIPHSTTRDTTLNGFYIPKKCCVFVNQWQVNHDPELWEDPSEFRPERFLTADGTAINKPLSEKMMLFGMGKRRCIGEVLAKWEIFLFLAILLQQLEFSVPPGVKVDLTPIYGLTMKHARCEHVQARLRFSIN

>  <COMPOUND>
N[C@H](Cc1ccccc1)c1nnn[nH]1

>  <AC50>
10 µM (inconclusive)

$$$$
>  <COMPOUND>
CCOC(=O)c1c(C)nc2c(c1-c1ccc(OC)cc1)C(=O)CC(C)(C)C2

>  <AC50>
14.1 µM (inconclusive)

$$$$
>  <COMPOUND>
CC(C)Cn1c(N)c(C(=O)CSc2ccc3c(c2)OCCO3)c(=O)n(C)c1=O

>  <AC50>
31.6 µM (inconclusive)

$$$$
>  <COMPOUND>
CCOc1ccc(C(Nc2ccc(C)cc2)P2(=O)OCC(C)(C)CO2)cc1 (centres undefined)

>  <AC50>
39.8 µM (inconclusive)

$$$$
>  <COMPOUND>
COc1cccc(Cn2nnc3c(O)nc(C4CCCN(C(=O)c5ccccc5Cl)C4)nc32)c1 (centres undefined)

>  <AC50>
25.1 µM (inconclusive)

$$$$
>  <COMPOUND>
CC[C@H]1C2=C3C(CC[C@H]4C(OC)OC[C@](C)([C@@H]34)N(C(=O)OC(C)(C)C)C2)C(CO)C1CO (some centres undefined)

>  <AC50>
12.6 µM (inconclusive)

$$$$
>  <COMPOUND>
CC1CCOC2(O1)C(=O)N(CN1CCN(c3ccccc3F)CC1)c1ccccc12 (centres undefined)

>  <AC50>
2 µM (inconclusive)

$$$$
>  <COMPOUND>
COc1ccccc1-c1cncnc1NCc1cnc(C)cn1

>  <AC50>
20 µM (inconclusive)

$$$$
>  <COMPOUND>
COc1ccc(OC)c(C2N(c3cc(C)on3)C(=O)C3CCCN32)c1 (centres undefined)

>  <AC50>
25.1 µM (inconclusive)

$$$$
